- targetEntity: D(2) dopamine receptor (Homo sapiens)
- Sequence (P14416 whole entry): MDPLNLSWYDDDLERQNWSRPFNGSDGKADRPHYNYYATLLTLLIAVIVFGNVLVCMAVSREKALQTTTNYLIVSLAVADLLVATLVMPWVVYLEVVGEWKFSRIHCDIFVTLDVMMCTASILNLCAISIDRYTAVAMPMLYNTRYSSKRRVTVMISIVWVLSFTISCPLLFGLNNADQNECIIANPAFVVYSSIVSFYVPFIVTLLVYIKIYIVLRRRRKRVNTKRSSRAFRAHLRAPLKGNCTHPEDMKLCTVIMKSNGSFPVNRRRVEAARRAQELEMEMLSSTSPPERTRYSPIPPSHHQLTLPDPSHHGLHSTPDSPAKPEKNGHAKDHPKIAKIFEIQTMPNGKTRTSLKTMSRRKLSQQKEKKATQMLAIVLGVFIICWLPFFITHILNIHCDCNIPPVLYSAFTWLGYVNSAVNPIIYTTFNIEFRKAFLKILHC
- measurementNotes: Binding affinity towards cloned human Dopamine D2 receptor in CHO cells using [3H]spiperone as radioligand
reportedProperty: pKi
Answers are plain numbers, as −log10 of the molar value.

[
  {
    "compound": "c1ccc(N2CCN(CCCOc3ccc(-c4nc5ccccc5[nH]4)cc3)CC2)nc1",
    "reportedProperty": "pKi",
    "numericValue": 7.15
  },
  {
    "compound": "Clc1ccc(N2CCN(CCCOc3ccc(-c4nc5ccccc5[nH]4)cc3)CC2)cc1",
    "reportedProperty": "pKi",
    "numericValue": 6.06
  },
  {
    "compound": "COc1ccccc1N1CCN(CCCOc2ccc(-c3nc4ccccc4[nH]3)cc2)CC1",
    "reportedProperty": "pKi",
    "numericValue": 8.06
  },
  {
    "compound": "Clc1cccc(N2CCN(CCCOc3ccc(-c4nc5ccccc5[nH]4)cc3)CC2)c1",
    "reportedProperty": "pKi",
    "numericValue": 5.85
  },
  {
    "compound": "COc1ccc(N2CCN(CCCOc3ccc(-c4nc5ccccc5[nH]4)cc3)CC2)cc1",
    "reportedProperty": "pKi",
    "numericValue": 6.53
  }
]

# batch: return pKi for each of the 4 molecules below
1. CCCSc1ccccc1N1CCN(CCCOc2ccc(-c3nc4ccccc4[nH]3)cc2)CC1
2. c1cnc(N2CCN(CCCOc3ccc(-c4nc5ccccc5[nH]4)cc3)CC2)nc1
3. c1ccc(N2CCN(CCCOc3ccc(-c4nc5ccccc5[nH]4)cc3)CC2)cc1
4. Clc1ccccc1N1CCN(CCCOc2ccc(-c3nc4ccccc4[nH]3)cc2)CC1

Result:
8.10
6.57
6.39
6.90

---

- targetEntity: D(3) dopamine receptor (Homo sapiens)
- Sequence (P35462 whole entry): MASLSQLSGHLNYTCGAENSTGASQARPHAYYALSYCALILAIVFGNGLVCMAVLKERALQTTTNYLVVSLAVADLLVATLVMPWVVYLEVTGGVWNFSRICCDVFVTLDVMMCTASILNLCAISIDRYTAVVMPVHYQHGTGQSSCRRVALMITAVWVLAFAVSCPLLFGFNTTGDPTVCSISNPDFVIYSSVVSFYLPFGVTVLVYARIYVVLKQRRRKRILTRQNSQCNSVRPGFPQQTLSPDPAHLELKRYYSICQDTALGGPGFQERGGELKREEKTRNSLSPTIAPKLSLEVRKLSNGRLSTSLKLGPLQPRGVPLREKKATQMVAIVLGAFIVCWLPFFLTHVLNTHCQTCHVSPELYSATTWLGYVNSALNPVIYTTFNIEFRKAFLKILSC
- measurementNotes: Binding affinity towards cloned human Dopamine D3 receptor in CHO cells using [3H]spiperone as radioligand
Ki strictly under 30 nM means True; at 30 nM or over means False.

Before answering, review these 5 worked examples.
[
  {
    "compound": "CN1CCN(CCCOc2ccc(-c3nc4ccccc4[nH]3)cc2)CC1",
    "targetEntity": "D(3) dopamine receptor (Homo sapiens)",
    "classification": "False"
  },
  {
    "compound": "COc1ccccc1N1CCN(CCCOc2ccc(-c3nc4ccccc4[nH]3)cc2)CC1",
    "targetEntity": "D(3) dopamine receptor (Homo sapiens)",
    "classification": "True"
  },
  {
    "compound": "Clc1ccccc1N1CCN(CCCOc2ccc(-c3nc4ccccc4[nH]3)cc2)CC1",
    "targetEntity": "D(3) dopamine receptor (Homo sapiens)",
    "classification": "True"
  },
  {
    "compound": "Clc1ccc(N2CCN(CCCOc3ccc(-c4nc5ccccc5[nH]4)cc3)CC2)cc1",
    "targetEntity": "D(3) dopamine receptor (Homo sapiens)",
    "classification": "True"
  },
  {
    "compound": "COc1ccc(N2CCN(CCCOc3ccc(-c4nc5ccccc5[nH]4)cc3)CC2)cc1",
    "targetEntity": "D(3) dopamine receptor (Homo sapiens)",
    "classification": "False"
  }
]

Query: # check: Ki < 30 nM for Clc1cccc(N2CCN(CCCOc3ccc(-c4nc5ccccc5[nH]4)cc3)CC2)c1
Result: False

Query: Here's an entry: c1ccc(N2CCN(CCCOc3ccc(-c4nc5ccccc5[nH]4)cc3)CC2)cc1 . Is its Ki below 30 nM?
Result: True
